ASSAY: Cmax in cynomolgus monkey plasma at 5 mg/kg, po tris(hydroxymethyl)aminomethane (tris) salt form of compound and measured up to 24 hrs by LC/MS-MS analysis
Format: ADME, organism-based, Macaca fascicularis
Design: route oral, dose 5 mg/kg, time <=24
VALUE KIND: Cmax
Show the value, then the unit it is measured in.

So what's the measured Cmax for this one? COc1cc(C(=O)N2CCC3(CC2)CC(=O)c2c(cnn2C(C)C)C3)cc(-c2ccc(C(=O)O)cc2)n1.NC(CO)(CO)CO [CLESACOSTAT TROMETHAMINE]
5.78 µg/mL

---

TARGET OR TEST SYSTEM: P-glycoprotein 1 (Homo sapiens)
ASSAY: Inhibition of human ABCB1 expressed in MDCK2-LE cells in presence of […]
VALUE KIND: pIC50
Answers are plain numbers, as −log10 of the molar value.

Which pIC50 is reported for this compound? `COc1cc(C(=O)N2CCC3(CC2)CC(=O)c2c(cnn2C(C)C)C3)cc(-c2ccc(C(=O)O)cc2)n1`
4.41

---

TARGET OR TEST SYSTEM: Acetyl-CoA carboxylase 2 (Homo sapiens)
ASSAY: Uncompetitive inhibition of human ACC2 incubated for 15 mins in presence of ATP by Line weaver-Burk plot analysis
VALUE KIND: pIC50
Answers are plain numbers, as −log10 of the molar value.

Request body: readout pIC50, system Acetyl-CoA carboxylase 2 (Homo sapiens), query `COc1cc(C(=O)N2CCC3(CC2)CC(=O)c2c(cnn2C(C)C)C3)cc(-c2ccc(C(=O)O)cc2)n1` . Return the value.
8.06

---

ASSAY: Clearance in Wistar-Hannover rat plasma at 1 mg/kg, iv and measured up to 24 hrs by LC/MS-MS analysis
Assay type: ADME, organism-based
VALUE KIND: clearance (mL/min/kg)
One number for each entry, in mL/min/kg.

> print(dat)
                                   molecule  obs.value
1  CC(C)n1ncc2c1C(=O)CC1(CCN(C(=O)c3cc(-c4ccc(C(=O)O)cc4)nc(N(C)C)c3)CC1)C2       31.3
2  COc1cc(C(=O)N2CCC3(CC2)CC(=O)c2nn(C(C)(C)C)cc2O3)cc(-c2ccc(C(=O)O)cc2)n1       54.5

Consider now this further molecule.
Dear colleague, I am looking for the recorded clearance of the following molecule: COc1cc(C(=O)N2CCC3(CC2)CC(=O)c2c(cnn2C(C)C)C3)cc(-c2ccc(C(=O)O)cc2)n1 [CLESACOSTAT]
16

---

TARGET OR TEST SYSTEM: Cytochrome P450 3A4 (Homo sapiens, UniProt P08684)
Sequence (P08684 whole entry): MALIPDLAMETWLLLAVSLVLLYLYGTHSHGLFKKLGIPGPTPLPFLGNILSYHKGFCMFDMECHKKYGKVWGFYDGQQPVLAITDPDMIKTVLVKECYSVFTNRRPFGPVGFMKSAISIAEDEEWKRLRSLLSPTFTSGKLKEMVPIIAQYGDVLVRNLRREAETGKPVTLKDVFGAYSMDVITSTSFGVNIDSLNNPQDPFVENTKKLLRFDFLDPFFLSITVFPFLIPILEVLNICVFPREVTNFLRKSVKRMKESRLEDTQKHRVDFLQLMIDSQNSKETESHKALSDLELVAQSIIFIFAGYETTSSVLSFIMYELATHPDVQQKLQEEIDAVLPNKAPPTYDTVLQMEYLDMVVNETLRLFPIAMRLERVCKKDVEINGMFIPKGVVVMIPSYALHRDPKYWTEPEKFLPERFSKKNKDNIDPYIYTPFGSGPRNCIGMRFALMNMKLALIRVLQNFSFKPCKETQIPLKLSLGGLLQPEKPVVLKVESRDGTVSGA
ASSAY: inhibition of CYP3A4 in human liver microsomes
Type: ADME
pIC50: −log10 of the molar value.
VALUE KIND: pIC50

Cytochrome P450 3A4 (Homo sapiens, UniProt P08684) / pIC50 / `COc1cc(C(=O)N2CCC3(CC2)CC(=O)c2c(cnn2C(C)C)C3)cc(-c2ccc(C(=O)O)cc2)n1` : value?
< 4.30

---

TARGET OR TEST SYSTEM: UDP-glucuronosyltransferase 1A6 (Homo sapiens)
Sequence (P19224 whole entry): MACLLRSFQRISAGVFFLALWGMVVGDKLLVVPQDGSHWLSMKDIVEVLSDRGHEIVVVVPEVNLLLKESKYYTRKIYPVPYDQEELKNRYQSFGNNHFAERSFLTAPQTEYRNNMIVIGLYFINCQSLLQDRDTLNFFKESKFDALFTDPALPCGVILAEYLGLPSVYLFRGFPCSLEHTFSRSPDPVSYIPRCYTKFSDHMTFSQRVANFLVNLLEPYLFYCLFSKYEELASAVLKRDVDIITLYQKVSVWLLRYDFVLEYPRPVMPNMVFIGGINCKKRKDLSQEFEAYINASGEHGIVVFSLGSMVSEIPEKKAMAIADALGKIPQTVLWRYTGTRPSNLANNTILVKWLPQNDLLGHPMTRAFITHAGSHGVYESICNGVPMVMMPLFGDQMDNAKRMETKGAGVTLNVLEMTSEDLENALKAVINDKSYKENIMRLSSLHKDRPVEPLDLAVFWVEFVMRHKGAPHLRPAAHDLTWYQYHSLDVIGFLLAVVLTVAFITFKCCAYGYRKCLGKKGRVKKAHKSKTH
ASSAY: Inhibition of UGT1A6 in human liver microsomes incubated for 90 mins in presence of UDPGA by LC-MS/MS analysis
pIC50: −log10 of the molar value.
VALUE KIND: pIC50

# pIC50 lookup, item `COc1cc(C(=O)N2CCC3(CC2)CC(=O)c2c(cnn2C(C)C)C3)cc(-c2ccc(C(=O)O)cc2)n1`
< 4.70

---

ASSAY: Apparent permeability in MCDKII-LE cells at 2 uM incubated for 30 mins
Type: ADME, cell-based, Canis lupus familiaris, MDCKII-LE
RUN PARAMETERS: dog, MDCK
Would you kindly list Papp at 0.5 h, 2 µM for each of these compounds?
One number for each entry, in ×10⁻⁶ cm/s.

Study these solved cases before continuing.
> print(dat)
                               input.smiles  obs.value
1  COc1cc(C(=O)N2CCC3(CC2)CC(=O)c2nn(C(C)(C)C)cc2O3)cc(-c2ccc(C(=O)O)cc2)n1          2
2  CC(C)(C)n1cc2c(n1)C(=O)CC1(CCN(C(=O)c3cccc(-c4cccc(C(=O)O)c4)c3)CC1)O2        1.3
3  CN(C)c1cc(C(=O)N2CCC3(CC2)CC(=O)c2nn(C(C)(C)C)cc2O3)cc(-c2ccc(C(=O)O)cc2)n1        0.5
4  CC(C)n1ncc2c1C(=O)CC1(CCN(C(=O)c3cc(-c4ccc(C(=O)O)cc4)nc(N(C)C)c3)CC1)C2         13
5  CC(C)(C)n1cc2c(n1)C(=O)CC1(CCN(C(=O)c3cccc(-c4ccc(C(=O)O)cc4)c3)CC1)O2        2.5

// each compound listed below needs its Papp at 0.5 h, 2 µM
1. COc1cc(C(=O)N2CCC3(CC2)CC(=O)c2c(cnn2C(C)C)C3)cc(-c2ccc(C(=O)O)cc2)n1
2. Cc1nc2cc(C(=O)N3CCC4(CC3)CC(=O)c3c(c(C(=O)O)nn3C(C)C)C4)ccc2[nH]1

14
0.5

---

Assign log10 IC50 to each entry below.
TARGET OR TEST SYSTEM: Acetyl-CoA carboxylase 2 (Homo sapiens, UniProt O00763)
Sequence (O00763 whole entry): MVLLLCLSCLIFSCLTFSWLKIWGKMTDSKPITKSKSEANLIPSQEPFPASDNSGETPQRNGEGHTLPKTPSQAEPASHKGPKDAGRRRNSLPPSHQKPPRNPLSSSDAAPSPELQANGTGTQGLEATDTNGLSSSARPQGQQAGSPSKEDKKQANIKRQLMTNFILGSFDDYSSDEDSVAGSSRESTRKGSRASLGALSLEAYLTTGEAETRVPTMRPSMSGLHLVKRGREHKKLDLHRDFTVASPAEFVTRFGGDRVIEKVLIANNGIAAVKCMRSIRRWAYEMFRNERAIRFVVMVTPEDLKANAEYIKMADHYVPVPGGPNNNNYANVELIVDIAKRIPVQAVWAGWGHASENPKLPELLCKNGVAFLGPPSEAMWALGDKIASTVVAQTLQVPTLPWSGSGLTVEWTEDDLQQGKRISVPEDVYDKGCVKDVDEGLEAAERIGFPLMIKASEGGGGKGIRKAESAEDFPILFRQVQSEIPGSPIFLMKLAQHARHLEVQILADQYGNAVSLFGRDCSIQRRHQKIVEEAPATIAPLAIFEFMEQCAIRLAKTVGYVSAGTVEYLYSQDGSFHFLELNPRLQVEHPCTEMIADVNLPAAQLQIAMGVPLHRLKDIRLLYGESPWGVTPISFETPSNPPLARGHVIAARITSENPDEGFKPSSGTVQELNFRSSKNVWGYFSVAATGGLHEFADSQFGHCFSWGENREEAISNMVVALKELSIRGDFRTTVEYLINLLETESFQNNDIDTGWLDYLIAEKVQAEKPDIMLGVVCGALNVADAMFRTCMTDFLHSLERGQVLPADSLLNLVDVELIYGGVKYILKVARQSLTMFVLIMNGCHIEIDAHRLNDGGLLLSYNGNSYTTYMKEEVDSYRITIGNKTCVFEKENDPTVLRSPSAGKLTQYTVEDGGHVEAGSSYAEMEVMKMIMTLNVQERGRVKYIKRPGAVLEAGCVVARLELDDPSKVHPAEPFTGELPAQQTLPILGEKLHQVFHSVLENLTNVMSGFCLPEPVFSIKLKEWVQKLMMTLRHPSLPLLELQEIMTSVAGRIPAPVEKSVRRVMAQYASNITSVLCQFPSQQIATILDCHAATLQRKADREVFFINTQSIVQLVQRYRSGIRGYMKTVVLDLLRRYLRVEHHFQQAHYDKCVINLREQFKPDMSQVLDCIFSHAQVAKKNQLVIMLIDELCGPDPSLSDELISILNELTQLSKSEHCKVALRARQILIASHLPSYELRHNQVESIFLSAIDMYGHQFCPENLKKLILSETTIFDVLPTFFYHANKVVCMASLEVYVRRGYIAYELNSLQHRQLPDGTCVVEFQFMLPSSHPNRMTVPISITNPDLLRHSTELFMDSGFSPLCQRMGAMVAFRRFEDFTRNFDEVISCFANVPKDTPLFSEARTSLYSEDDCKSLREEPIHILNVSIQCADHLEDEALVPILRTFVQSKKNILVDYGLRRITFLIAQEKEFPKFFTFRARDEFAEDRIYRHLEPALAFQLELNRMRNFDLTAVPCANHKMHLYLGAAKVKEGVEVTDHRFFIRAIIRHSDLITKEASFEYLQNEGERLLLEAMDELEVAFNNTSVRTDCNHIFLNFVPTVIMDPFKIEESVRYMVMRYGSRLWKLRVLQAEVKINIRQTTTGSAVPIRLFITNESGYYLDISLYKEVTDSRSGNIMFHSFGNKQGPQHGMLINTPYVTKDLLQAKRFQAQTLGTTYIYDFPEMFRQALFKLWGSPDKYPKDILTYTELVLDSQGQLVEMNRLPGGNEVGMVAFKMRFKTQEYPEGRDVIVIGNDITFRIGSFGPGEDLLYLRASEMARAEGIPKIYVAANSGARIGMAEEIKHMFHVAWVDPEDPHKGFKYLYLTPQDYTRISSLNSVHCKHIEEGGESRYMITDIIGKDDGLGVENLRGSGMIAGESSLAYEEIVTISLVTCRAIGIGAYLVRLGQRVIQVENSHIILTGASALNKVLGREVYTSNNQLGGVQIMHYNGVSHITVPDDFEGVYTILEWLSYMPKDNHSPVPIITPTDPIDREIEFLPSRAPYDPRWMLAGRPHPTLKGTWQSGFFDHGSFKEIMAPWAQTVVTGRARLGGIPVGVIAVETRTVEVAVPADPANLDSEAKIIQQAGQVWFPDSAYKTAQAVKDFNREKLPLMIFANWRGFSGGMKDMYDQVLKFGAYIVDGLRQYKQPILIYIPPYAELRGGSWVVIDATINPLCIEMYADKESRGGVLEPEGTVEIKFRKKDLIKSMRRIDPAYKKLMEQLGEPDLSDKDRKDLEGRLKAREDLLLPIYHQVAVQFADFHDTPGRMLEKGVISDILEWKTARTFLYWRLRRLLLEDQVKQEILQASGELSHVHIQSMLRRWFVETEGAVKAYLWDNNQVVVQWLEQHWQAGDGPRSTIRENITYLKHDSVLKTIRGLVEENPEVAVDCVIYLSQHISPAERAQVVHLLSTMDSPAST
ASSAY: Inhibition of recombinant human ACC2 using acetyl coA as substrate incubated for 1 hr by transcreener fluorescence polarization assay
For clarity, the numbers are log10 values of IC50 expressed in nM.

> print(dat)
                               input.smiles  value.kind  obs.value
1  COc1cc(C(=O)N2CCC3(CC2)CC(=O)c2c(cnn2C(C)C)C3)cc(-c2ccc(C(=O)O)cc2)n1  log10 IC50       1.41
2  CC(C)n1ncc2c1C(=O)CC1(CCN(C(=O)c3cc(-c4ccc(C(=O)O)cc4)nc(N(C)C)c3)CC1)C2  log10 IC50       0.75
3  CC(C)(C)n1cc2c(n1)C(=O)CC1(CCN(C(=O)c3ccnc(-c4ccc(C(=O)O)cc4)c3)CC1)O2  log10 IC50       2.28
4  CN(C)c1cc(C(=O)N2CCC3(CC2)CC(=O)c2nn(C(C)(C)C)cc2O3)cc(-c2ccc(C(=O)O)cc2)n1  log10 IC50       0.97

Please state log10 IC50 for every molecule in the list that follows.
1. CC(C)(C)n1cc2c(n1)C(=O)CC1(CCN(C(=O)c3ccc4[nH]nc(C(=O)O)c4c3)CC1)O2
2. CC(C)(C)n1cc2c(n1)C(=O)CC1(CCN(C(=O)c3cccc(-c4cccc(C(=O)O)c4)c3)CC1)O2
3. Cc1nc2cc(C(=O)N3CCC4(CC3)CC(=O)c3c(c(C(=O)O)nn3C(C)C)C4)ccc2[nH]1
4. COc1cc(C(=O)N2CCC3(CC2)CC(=O)c2nn(C(C)(C)C)cc2O3)cc(-c2ccc(C(=O)O)cc2)n1
5. CC(C)(C)n1cc2c(n1)C(=O)CC1(CCN(C(=O)c3cccc(-c4ccc(C(=O)O)cc4)c3)CC1)O2

1: 1.52; 2: 2.30; 3: 3.08; 4: 1.11; 5: 1.96

---

ASSAY: Drug uptake in Wistar-Hannover rat liver at 10 mg/kg, po using hydrochloride salt form of compound after 6 hrs by LC/MS-MS analysis
Format: ADME, organism-based
RUN PARAMETERS: read-out: Drug uptake
VALUE KIND: concentration at 6 h (ng/mL)
Numbers only, in ng/mL.

Look at this compound and give its reported concentration at 6 h. `CC(C)n1ncc2c1C(=O)CC1(CCN(C(=O)c3cc(-c4ccc(C(=O)O)cc4)nc(N(C)C)c3)CC1)C2.Cl`
9920

---

ASSAY: Ratio of drug uptake in cynomolgus monkey liver to plasma at 1 mg/kg, iv tris(hydroxymethyl)aminomethane (tris) salt form of compound after 6 hrs by LC/MS-MS analysis
Type: ADME, organism-based, Macaca fascicularis
RUN PARAMETERS: liver and plasma
VALUE KIND: Kp at 6 h
Numbers only.

If you can, please state the reported Kp at 6 h value of `COc1cc(C(=O)N2CCC3(CC2)CC(=O)c2c(cnn2C(C)C)C3)cc(-c2ccc(C(=O)O)cc2)n1.NC(CO)(CO)CO` .
15

---

TARGET OR TEST SYSTEM: Acetyl-CoA carboxylase 1 (Homo sapiens)
ASSAY: Inhibition of recombinant human ACC1 using acetyl coA as substrate incubated for 1 hr by transcreener fluorescence polarization assay
# Fulfilled = IC50 below 100 nM (exclusive); Not fulfilled = IC50 at/above 100 nM

> print(dat)
                                   molecule  label.class
1  COc1cc(C(=O)N2CCC3(CC2)CC(=O)c2nn(C(C)(C)C)cc2O3)cc(-c2ccc(C(=O)O)cc2)n1    Fulfilled

Would you kindly verify if IC50 of `CN(C)c1cc(C(=O)N2CCC3(CC2)CC(=O)c2nn(C(C)(C)C)cc2O3)cc(-c2ccc(C(=O)O)cc2)n1` is strictly less than 100 nM?
Fulfilled

Now this one: COc1cc(C(=O)N2CCC3(CC2)CC(=O)c2c(cnn2C(C)C)C3)cc(-c2ccc(C(=O)O)cc2)n1 [CLESACOSTAT]
Fulfilled

Another molecule: `CC(C)(C)n1cc2c(n1)C(=O)CC1(CCN(C(=O)c3ccc4[nH]nc(C(=O)O)c4c3)CC1)O2`
Not fulfilled

Quick one: `CC(C)(C)n1cc2c(n1)C(=O)CC1(CCN(C(=O)c3cccc(-c4cccc(C(=O)O)c4)c3)CC1)O2`
Not fulfilled
